- assayed system: GRIP2_7, Q9C0E4
- Sequence (Q9C0E4 934-1023): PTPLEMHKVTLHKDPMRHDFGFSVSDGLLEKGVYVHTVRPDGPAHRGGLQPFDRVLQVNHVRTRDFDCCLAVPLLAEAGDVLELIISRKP
- run description: holdup assay
- Parameters: key: below the threshold = too weak to quantify, mostly under pKd 3.1 to 4
- condition: plain residues with an end cap or a label only (N-terminal biotin on a linker: ado-ado)

[
  {
    "binder": "PEYLGLDVPV [ERBB2, P04626]",
    "pKd": "below the threshold"
  },
  {
    "binder": "QHKTQLQTLI [BPIFA2, Q96DR5]",
    "pKd": "below the threshold"
  },
  {
    "binder": "DDEDRLVIEI [ZNF831, Q5JPB2]",
    "pKd": "below the threshold"
  },
  {
    "binder": "SKSNFGSEPL [KIF17, Q9P2E2]",
    "pKd": "below the threshold"
  },
  {
    "binder": "SSALYGESDL [ACTN2, P35609]",
    "pKd": "below the threshold"
  },
  {
    "binder": "YNNCLEILRV [DCAF7, P61962]",
    "pKd": "below the threshold"
  },
  {
    "binder": "LPAHHNATRL [SLC34A1, Q06495;Q06495-1]",
    "pKd": "below the threshold"
  },
  {
    "binder": "PKRSFIESNV [TANC1, Q9C0D5]",
    "pKd": "below the threshold"
  },
  {
    "binder": "NLSIEKETKL [ASNSD1, Q9NWL6]",
    "pKd": "below the threshold"
  },
  {
    "binder": "RKPKPSSSCC [RAB9A, P51151]",
    "pKd": "below the threshold"
  },
  {
    "binder": "TLPRKRMSSI [GPRC6A, Q5T6X5]",
    "pKd": "below the threshold"
  },
  {
    "binder": "TACCHSETVV [TGFA, P01135]",
    "pKd": "below the threshold"
  },
  {
    "binder": "LKVPPEERLI [CRB2, Q5IJ48]",
    "pKd": "below the threshold"
  },
  {
    "binder": "PRISRSQSEL [CCDC134, Q9H6E4]",
    "pKd": "below the threshold"
  },
  {
    "binder": "LPHPHSTTRV [NLGN2, Q8NFZ4]",
    "pKd": "below the threshold"
  },
  {
    "binder": "VRNLPESEEL [MYOZ3, Q8TDC0]",
    "pKd": "below the threshold"
  },
  {
    "binder": "MLSKQSESAI [FLVCR1, Q9Y5Y0]",
    "pKd": "below the threshold"
  },
  {
    "binder": "DTTVPESEDL [MYOZ2, Q9NPC6]",
    "pKd": "below the threshold"
  },
  {
    "binder": "EVNETDDTKM [KCNJ1, P48048]",
    "pKd": "below the threshold"
  },
  {
    "binder": "VYPNAKVELV [PDLIM4_iso2, P50479;P50479-1]",
    "pKd": "below the threshold"
  },
  {
    "binder": "LSEFKAMDSI [CTNNA1, P35221]",
    "pKd": "below the threshold"
  },
  {
    "binder": "TSQESEDTYL [TBC1D10A, Q9BXI6]",
    "pKd": "below the threshold"
  },
  {
    "binder": "QPCFNKLFPL [LPXN, O60711]",
    "pKd": 3.69
  },
  {
    "binder": "EKKTLIGIKL [GOT1L1, Q8NHS2]",
    "pKd": "below the threshold"
  },
  {
    "binder": "IPLDGETEEL [MYOZ1, Q9NP98]",
    "pKd": "below the threshold"
  },
  {
    "binder": "SARSRLSSNL [HCN2, Q9UL51]",
    "pKd": "below the threshold"
  },
  {
    "binder": "HLRARKSEWV [GJD4, Q96KN9]",
    "pKd": 4.04
  },
  {
    "binder": "RRLPGKETMA [GRIK2, Q13002]",
    "pKd": "below the threshold"
  },
  {
    "binder": "TASPAKETSF [SLC2A7, Q6PXP3]",
    "pKd": "below the threshold"
  },
  {
    "binder": "QKNRKAQEDL [CES3, Q6UWW8]",
    "pKd": "below the threshold"
  },
  {
    "binder": "AKPSRISTVV [IQSEC2, Q5JU85]",
    "pKd": "below the threshold"
  },
  {
    "binder": "RHGSCVETSL [TMEM151B, Q8IW70]",
    "pKd": "below the threshold"
  }
]
